- experimental-system: Yer184c (UniProt P39961)
- Sequence: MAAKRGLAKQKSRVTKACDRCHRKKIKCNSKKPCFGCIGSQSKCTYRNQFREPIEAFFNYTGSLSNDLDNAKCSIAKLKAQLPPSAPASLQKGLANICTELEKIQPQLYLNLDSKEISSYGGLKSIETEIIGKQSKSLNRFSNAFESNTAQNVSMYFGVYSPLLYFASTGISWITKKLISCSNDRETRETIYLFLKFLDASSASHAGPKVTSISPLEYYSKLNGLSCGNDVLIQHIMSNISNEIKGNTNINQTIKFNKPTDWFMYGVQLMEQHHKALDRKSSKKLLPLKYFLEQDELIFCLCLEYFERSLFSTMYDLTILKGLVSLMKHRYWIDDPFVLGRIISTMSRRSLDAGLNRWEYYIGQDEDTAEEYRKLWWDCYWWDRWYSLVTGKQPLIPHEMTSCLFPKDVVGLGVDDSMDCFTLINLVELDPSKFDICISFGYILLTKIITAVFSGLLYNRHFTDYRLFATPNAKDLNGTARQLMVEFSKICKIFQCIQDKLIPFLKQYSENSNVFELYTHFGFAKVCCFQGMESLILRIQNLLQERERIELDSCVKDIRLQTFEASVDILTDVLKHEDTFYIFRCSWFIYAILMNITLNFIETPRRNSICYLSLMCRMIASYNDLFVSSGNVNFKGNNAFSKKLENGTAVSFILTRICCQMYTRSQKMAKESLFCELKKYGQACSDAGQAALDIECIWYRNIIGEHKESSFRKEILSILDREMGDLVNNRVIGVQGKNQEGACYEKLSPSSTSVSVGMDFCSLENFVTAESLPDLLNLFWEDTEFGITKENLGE
- test-method-notes: PBM E-score (8-mer binding enrichment) (E-score (-0.5 to 0.5)); higher = stronger / more preferred TF binding
- assay-setup: protein concentration: 100 nM; construct: GST-full length
In all, about 33,000 sequences were measured (“E-score (-0.5 to 0.5)”: median about -0.016, highest 2% from about 0.3 on). The sample holds the highest values, similar sequences and a random draw of the others, so the mix is not that of the screen.
result-type: PBM E-score
Provide a numeric answer; units are not to be included.

INSERT INTO assay_data (ordered_residues, experimental_system, value) VALUES
  ('TTATATAA', 'Yer184c (UniProt P39961)', 0.225),
  ('GGGGCCGA', 'Yer184c (UniProt P39961)', -0.192),
  ('TGTTTAAA', 'Yer184c (UniProt P39961)', 0.0737);

Prompt: Query (sequence): GCCCTTCA ; field requested: PBM E-score
Completion: -0.0881

Prompt: Query (sequence): CTATAACA ; field requested: PBM E-score
Completion: -0.0394

Prompt: Query (sequence): GAGCACCC ; field requested: PBM E-score
Completion: -0.141

Prompt: Query (sequence): CGGGCCGA ; field requested: PBM E-score
Completion: 0.308

Prompt: Query (sequence): CGGGCCGC ; field requested: PBM E-score
Completion: 0.137

Prompt: Query (sequence): ACATTAAA ; field requested: PBM E-score
Completion: 0.0822

Prompt: Query (sequence): AGGTAGGA ; field requested: PBM E-score
Completion: -0.06

Prompt: Query (sequence): AATCTTAG ; field requested: PBM E-score
Completion: 0.124
